Test: Pharmacokinetics and BBB penetration after i.p. and i.v. administration (LC-MS/MS)
Assay type: in vivo, BALB/c mice
Conditions: BALB/c, mouse, intraperitoneal; 20 mg/kg, brain; read-out: Tmax in the brain (converted)
readout_type: Tmax
Please state the value followed by its unit.

Prompt: Provide one value: measured Tmax of CCOc1cccc(OCCN(C)C)c1C(=O)Nc1ccc(Cl)c(C(F)(F)F)c1
Response: 15 min

* * *

Experiment: Oral pharmacokinetics
Format: in vivo
Conditions: oral, plasma
readout_type: MRT (h)
Reply with just the number (in h).

Prompt: Provide one value: measured MRT of CCOc1cccc(OCCN(C)C)c1C(=O)Nc1ccc(Cl)c(C(F)(F)F)c1 [Compound 1]
Response: 1.5

* * *

Test: Pharmacokinetics and BBB penetration after i.p. and i.v. administration (LC-MS/MS)
Format: in vivo, BALB/c mice
Conditions: BALB/c, mouse; IP, 20 mg/kg, plasma; read-out: t½ (converted)
readout_type: half-life (min)
Reply with just the number (in min).

Prompt: Provide one value: measured half-life of CCOc1cccc(OCCN(C)C)c1C(=O)Nc1ccc(Cl)c(C(F)(F)F)c1
Response: 36

* * *

Experiment: Pharmacokinetics and BBB penetration after i.p. and i.v. administration (LC-MS/MS)
Format: in vivo, BALB/c mice
Details: BALB/c, mouse, ip, 20 mg/kg; i.p.; brain and plasma; read-out: elimination half-lives in the brain and plasma
readout_type: half-life

Prompt: Provide one value: measured half-life of CCOc1cccc(OCCN(C)C)c1C(=O)Nc1ccc(Cl)c(C(F)(F)F)c1
Response: ~40 min

* * *

Assay: Oral pharmacokinetics
Format: in vivo
Conditions: oral, brain
readout_type: MRT (h)
Reply with just the number (in h).

Prompt: Provide one value: measured MRT of CCOc1cccc(OCCN(C)C)c1C(=O)Nc1ccc(Cl)c(C(F)(F)F)c1 [Compound 1]
Response: 1.68

* * *

Biological target: HDAC7 (Homo sapiens)
Sequence (Q8WUI4 whole entry): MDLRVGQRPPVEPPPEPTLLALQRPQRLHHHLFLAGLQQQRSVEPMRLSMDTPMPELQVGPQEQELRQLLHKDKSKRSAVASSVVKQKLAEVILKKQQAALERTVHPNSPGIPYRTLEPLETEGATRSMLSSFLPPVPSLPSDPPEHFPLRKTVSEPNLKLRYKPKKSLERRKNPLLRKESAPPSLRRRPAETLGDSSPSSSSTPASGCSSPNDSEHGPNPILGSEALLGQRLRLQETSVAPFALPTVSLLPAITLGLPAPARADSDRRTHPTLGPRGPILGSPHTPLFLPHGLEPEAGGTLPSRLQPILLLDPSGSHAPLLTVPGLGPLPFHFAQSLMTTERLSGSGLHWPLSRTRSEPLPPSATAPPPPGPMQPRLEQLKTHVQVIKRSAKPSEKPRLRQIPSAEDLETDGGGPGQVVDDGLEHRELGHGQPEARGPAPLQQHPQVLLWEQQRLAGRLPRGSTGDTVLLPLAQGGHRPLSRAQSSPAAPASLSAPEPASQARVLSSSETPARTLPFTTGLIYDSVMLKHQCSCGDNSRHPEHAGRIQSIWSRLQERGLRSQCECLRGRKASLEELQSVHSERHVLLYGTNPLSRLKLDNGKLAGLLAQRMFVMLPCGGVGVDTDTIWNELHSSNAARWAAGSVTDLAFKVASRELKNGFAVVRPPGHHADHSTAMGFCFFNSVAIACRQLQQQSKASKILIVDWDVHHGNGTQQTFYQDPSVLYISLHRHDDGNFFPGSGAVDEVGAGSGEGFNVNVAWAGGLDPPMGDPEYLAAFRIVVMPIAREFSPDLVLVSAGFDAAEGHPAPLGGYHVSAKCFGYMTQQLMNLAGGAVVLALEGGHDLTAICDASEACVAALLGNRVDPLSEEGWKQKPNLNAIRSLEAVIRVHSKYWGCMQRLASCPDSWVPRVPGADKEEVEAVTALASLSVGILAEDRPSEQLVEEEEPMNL
pIC50: −log10 of the molar value.
readout_type: pIC50

Prompt: Provide one value: measured pIC50 of CCOc1cccc(OCCN(C)C)c1C(=O)Nc1ccc(Cl)c(C(F)(F)F)c1
Response: < 3.70

* * *

Assay: Oral pharmacokinetics
Type: in vivo
Details: oral, brain
readout_type: Tmax (h)
Reply with just the number (in h).

Prompt: Provide one value: measured Tmax of CCOc1cccc(OCCN(C)C)c1C(=O)Nc1ccc(Cl)c(C(F)(F)F)c1
Response: 1

* * *

Assay: Pharmacokinetics and BBB penetration after i.p. and i.v. administration (LC-MS/MS)
Assay type: in vivo, BALB/c mice
Details: BALB/c, mouse, brain/plasma, ip, 20 mg/kg, IP, read-out: Cmax ratio brain/plasma
readout_type: Kp
A bare number is all that is needed in reply.

Prompt: Provide one value: measured Kp of CCOc1cccc(OCCN(C)C)c1C(=O)Nc1ccc(Cl)c(C(F)(F)F)c1 [Compound 1]
Response: 5.8

* * *

Experiment: Oral pharmacokinetics
Assay type: in vivo
Conditions: oral, brain
readout_type: Cmax (ng/g)
Reply with just the number (in ng/g).

Prompt: Provide one value: measured Cmax of CCOc1cccc(OCCN(C)C)c1C(=O)Nc1ccc(Cl)c(C(F)(F)F)c1
Response: 1010

* * *

Test: Pharmacokinetics and BBB penetration after i.p. and i.v. administration (LC-MS/MS)
Type: in vivo, BALB/c mice
Conditions: BALB/c, mouse; IV, 20 mg/kg, plasma
readout_type: Cmax (ng/mL)
Reply with just the number (in ng/mL).

Prompt: Provide one value: measured Cmax of CCOc1cccc(OCCN(C)C)c1C(=O)Nc1ccc(Cl)c(C(F)(F)F)c1
Response: 2130

* * *

Experiment: Oral pharmacokinetics
Format: in vivo
Conditions: oral, brain; read-out: t1/2 (converted)
readout_type: half-life (min)
Reply with just the number (in min).

Prompt: Provide one value: measured half-life of CCOc1cccc(OCCN(C)C)c1C(=O)Nc1ccc(Cl)c(C(F)(F)F)c1
Response: 59.4

* * *

Assay: Pharmacokinetics and BBB penetration after i.p. and i.v. administration (LC-MS/MS)
Format: in vivo, BALB/c mice
Conditions: BALB/c, mouse, brain/plasma, ip, 20 mg/kg, IP, read-out: AUC0-t ratio brain/plasma
readout_type: Kp
A bare number is all that is needed in reply.

Prompt: Provide one value: measured Kp of CCOc1cccc(OCCN(C)C)c1C(=O)Nc1ccc(Cl)c(C(F)(F)F)c1
Response: 8.2

* * *

Test: Oral pharmacokinetics
Assay type: in vivo
Settings: oral, plasma
readout_type: Tmax (min)
Reply with just the number (in min).

Prompt: Provide one value: measured Tmax of CCOc1cccc(OCCN(C)C)c1C(=O)Nc1ccc(Cl)c(C(F)(F)F)c1
Response: 30

* * *

Experiment: Pharmacokinetics and BBB penetration after i.p. and i.v. administration (LC-MS/MS)
Type: in vivo, BALB/c mice
Details: BALB/c, mouse, brain/plasma, iv, 20 mg/kg, IV, read-out: Cmax ratio brain/plasma
readout_type: Kp
A bare number is all that is needed in reply.

Prompt: Provide one value: measured Kp of CCOc1cccc(OCCN(C)C)c1C(=O)Nc1ccc(Cl)c(C(F)(F)F)c1 [Compound 1]
Response: 13.1

* * *

Experiment: Pharmacokinetics and BBB penetration after i.p. and i.v. administration (LC-MS/MS)
Assay type: in vivo, BALB/c mice
Details: BALB/c, mouse; IP, 20 mg/kg, plasma; read-out: Tmax
readout_type: Tmax (min)
Reply with just the number (in min).

Prompt: Provide one value: measured Tmax of CCOc1cccc(OCCN(C)C)c1C(=O)Nc1ccc(Cl)c(C(F)(F)F)c1
Response: 15

* * *

Target: Sirtuin 2 (Homo sapiens, UniProt Q8IXJ6)
Sequence (Q8IXJ6 whole entry): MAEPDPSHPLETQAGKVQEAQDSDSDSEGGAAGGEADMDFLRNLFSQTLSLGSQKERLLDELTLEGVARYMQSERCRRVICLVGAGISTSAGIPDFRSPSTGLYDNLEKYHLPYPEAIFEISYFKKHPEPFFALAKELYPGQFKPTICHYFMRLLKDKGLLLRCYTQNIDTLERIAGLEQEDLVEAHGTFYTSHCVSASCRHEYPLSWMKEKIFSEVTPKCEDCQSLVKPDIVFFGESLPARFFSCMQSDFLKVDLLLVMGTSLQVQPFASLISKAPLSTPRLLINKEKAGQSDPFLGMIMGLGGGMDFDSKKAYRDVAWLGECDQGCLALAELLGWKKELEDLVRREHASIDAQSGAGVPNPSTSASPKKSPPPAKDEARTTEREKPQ
Assay: Sirtuin 2 activity assay (fluorescence)
Settings: Sirtuin 2
readout_type: IC50

Prompt: Provide one value: measured IC50 of O=C(CCCCCCC(=O)Nc1ccccc1)NO [SAHA, reference compound]
Response: > 10 µM

* * *

Experiment: Pharmacokinetics and BBB penetration after i.p. and i.v. administration (LC-MS/MS)
Type: in vivo, BALB/c mice
Details: BALB/c, mouse; IV, 20 mg/kg, brain; read-out: Tmax
readout_type: Tmax (min)
Reply with just the number (in min).

Prompt: Provide one value: measured Tmax of CCOc1cccc(OCCN(C)C)c1C(=O)Nc1ccc(Cl)c(C(F)(F)F)c1
Response: 7.5

* * *

Test: Pharmacokinetics and BBB penetration after i.p. and i.v. administration (LC-MS/MS)
Assay type: in vivo, BALB/c mice
Conditions: BALB/c, mouse; IV, 20 mg/kg, plasma
readout_type: AUC(0-inf) (ng·h/mL)
Reply with just the number (in ng·h/mL).

Prompt: Provide one value: measured AUC(0-inf) of CCOc1cccc(OCCN(C)C)c1C(=O)Nc1ccc(Cl)c(C(F)(F)F)c1
Response: 2020

* * *

Assay: Pharmacokinetics and BBB penetration after i.p. and i.v. administration (LC-MS/MS)
Assay type: in vivo, BALB/c mice
Conditions: BALB/c, mouse; IV, 20 mg/kg, plasma; read-out: t½ (converted)
readout_type: half-life (min)
Reply with just the number (in min).

Prompt: Provide one value: measured half-life of CCOc1cccc(OCCN(C)C)c1C(=O)Nc1ccc(Cl)c(C(F)(F)F)c1
Response: 42

* * *

Assay: Pharmacokinetics and BBB penetration after i.p. and i.v. administration (LC-MS/MS)
Assay type: in vivo, BALB/c mice
Details: BALB/c, mouse; IP, 20 mg/kg, brain; read-out: Tmax
readout_type: Tmax (min)
Reply with just the number (in min).

Prompt: Provide one value: measured Tmax of CCOc1cccc(OCCN(C)C)c1C(=O)Nc1ccc(Cl)c(C(F)(F)F)c1 [Compound 1]
Response: 15

* * *

Test: Oral pharmacokinetics
Type: in vivo
Settings: brain/plasma, po; read-out: Cmax ratio brain/plasma
readout_type: Kp

Prompt: Provide one value: measured Kp of CCOc1cccc(OCCN(C)C)c1C(=O)Nc1ccc(Cl)c(C(F)(F)F)c1 [Compound 1]
Response: 5.7

* * *

Experiment: Pharmacokinetics and BBB penetration after i.p. and i.v. administration (LC-MS/MS)
Type: in vivo, BALB/c mice
Details: BALB/c, mouse, brain/plasma, iv, 20 mg/kg, IV, read-out: AUC0-t ratio brain/plasma
readout_type: Kp

Prompt: Provide one value: measured Kp of CCOc1cccc(OCCN(C)C)c1C(=O)Nc1ccc(Cl)c(C(F)(F)F)c1
Response: 10.8

* * *

Assay: Pharmacokinetics and BBB penetration after i.p. and i.v. administration (LC-MS/MS)
Type: in vivo, BALB/c mice
Conditions: BALB/c, mouse; IV, 20 mg/kg, plasma; read-out: Tmax
readout_type: Tmax

Prompt: Provide one value: measured Tmax of CCOc1cccc(OCCN(C)C)c1C(=O)Nc1ccc(Cl)c(C(F)(F)F)c1
Response: 7.5 min

* * *

Experiment: Pharmacokinetics and BBB penetration after i.p. and i.v. administration (LC-MS/MS)
Assay type: in vivo, BALB/c mice
Conditions: BALB/c, mouse; IV, 20 mg/kg, brain
readout_type: Cmax (ng/g)
Reply with just the number (in ng/g).

Prompt: Provide one value: measured Cmax of CCOc1cccc(OCCN(C)C)c1C(=O)Nc1ccc(Cl)c(C(F)(F)F)c1
Response: 27900

Ref: patent US9809532B2
